- Experimental target: human TLR7 (Homo sapiens (Human))
- Sequence (Q9NYK1 27-1049): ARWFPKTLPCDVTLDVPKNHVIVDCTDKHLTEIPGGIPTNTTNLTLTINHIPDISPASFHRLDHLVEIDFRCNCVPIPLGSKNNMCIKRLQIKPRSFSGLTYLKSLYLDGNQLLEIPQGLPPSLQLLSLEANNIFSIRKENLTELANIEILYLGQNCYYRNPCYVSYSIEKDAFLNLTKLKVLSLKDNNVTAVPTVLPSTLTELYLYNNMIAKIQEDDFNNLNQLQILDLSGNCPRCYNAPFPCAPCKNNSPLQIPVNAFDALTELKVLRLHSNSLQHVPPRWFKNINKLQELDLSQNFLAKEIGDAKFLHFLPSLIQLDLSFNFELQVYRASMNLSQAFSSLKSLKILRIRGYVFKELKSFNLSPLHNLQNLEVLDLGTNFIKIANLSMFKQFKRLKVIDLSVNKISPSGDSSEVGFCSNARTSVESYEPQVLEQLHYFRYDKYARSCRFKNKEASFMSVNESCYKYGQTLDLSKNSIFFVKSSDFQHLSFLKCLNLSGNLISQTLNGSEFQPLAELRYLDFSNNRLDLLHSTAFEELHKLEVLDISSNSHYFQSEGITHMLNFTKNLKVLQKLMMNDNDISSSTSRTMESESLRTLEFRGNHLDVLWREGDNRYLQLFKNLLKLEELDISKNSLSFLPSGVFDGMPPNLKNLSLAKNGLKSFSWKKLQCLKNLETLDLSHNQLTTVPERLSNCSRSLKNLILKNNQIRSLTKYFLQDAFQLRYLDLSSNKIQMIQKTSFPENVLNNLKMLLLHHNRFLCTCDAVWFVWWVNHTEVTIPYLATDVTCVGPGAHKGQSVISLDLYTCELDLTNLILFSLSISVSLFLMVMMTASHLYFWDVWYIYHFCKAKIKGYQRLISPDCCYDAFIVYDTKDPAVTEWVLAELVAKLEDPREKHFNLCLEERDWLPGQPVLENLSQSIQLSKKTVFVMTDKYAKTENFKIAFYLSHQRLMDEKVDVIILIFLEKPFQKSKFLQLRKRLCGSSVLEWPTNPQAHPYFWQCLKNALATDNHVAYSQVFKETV
- Measurement protocol: TLR7 inhibition reporter assay (HEK-Blue SEAP)
- Condition details: HEK-Blue cells overexpressing human TLR7, gardiquimod 7.5 μM stimulation
Assay endpoint: IC50 (nM)
Only the number, expressed in nM, is required.

COc1cc(-c2[nH]c3cnc(C4CCC(NCC5(C)COC5)CC4)c(F)c3c2C(C)C)cn2ncnc12 (stereo not drawn) [Example 225] ... 4
COc1cc(-c2[nH]c3cnc(C4CCC(N5CCC5)CC4)cc3c2C(C)C)cn2ncnc12 (stereo not drawn) [Example 332] ... 7.7
COc1cc(-c2[nH]c3cnc(N4CCC(N(C)C)CC4)c(F)c3c2C(C)C)cn2ncnc12 [Example 218] ... 0.82
Cc1cc(-c2[nH]c3cnc(C4CCN(C(=O)CN(C)C)CC4)c(F)c3c2C(C)C)cn2ncnc12 [Example 65] ... 2.2

Problem: Give IC50 for COc1cc(-c2[nH]c3cnc(C4CCC(NC5CCOC5)CC4)cc3c2C(C)C)cn2ncnc12 (stereo not drawn) [Example 317]
Result: 2.1

Problem: Tell me its IC50 given COc1cc(-c2[nH]c3cnc(N4CCN(CC(=O)N5CCOCC5)C[C@H]4C)c(F)c3c2C(C)C)cn2ncnc12 [Example 448] as the entry.
Result: 28

Problem: Provide measured IC50 value, entry: COc1cc(-c2[nH]c3cnc(N4CCN(CCS(C)(=O)=O)CC4)cc3c2C(C)C)cn2ncnc12 [Example 290]
Result: 20

Problem: Answer with reported IC50 of COc1cc(-c2[nH]c3cnc(C4CCC(N(C)C5COC5)CC4)c(F)c3c2C(C)C)cn2ncnc12 (stereo not drawn) [Example 106]
Result: 4.9

Problem: // fetch IC50 given entry Cc1cc(-c2[nH]c3cnc(C4CCN(C(=O)CN(C)C)CC4)c(F)c3c2C(C)C)cc(C)n1 [Example 185]
Result: 6.2

Problem: Note IC50 for the molecule shown: COc1cc(-c2[nH]c3cnc(N4CC5(CN(CC6CC6)C5)C4)c(F)c3c2C(C)C)cn2ncnc12 [Example 374]
Result: 6

Problem: Return value of IC50 for input COc1cc(-c2[nH]c3cnc(N4CCN(CC(=O)N(C)C)CC4)c(F)c3c2C(C)C)cn2ncnc12 [Example 360] , no commentary.
Result: 2.9

Problem: Supply IC50 value. Item: COc1cc(-c2[nH]c3cnc(N4CCC(NC(C)C)CC4)c(C)c3c2C(C)C)cn2ncnc12 [Example 202]
Result: 0.35

Just for reference, patent US11912703B2 is where these values come from.
